Experiment: Clearance in male Sprague-Dawley rat at 15 mg/kg, po measured after 8 hrs by UPLC-MS/MS analysis
Format: ADME, organism-based
Conditions: in vivo
Readout kind: CL/F

Could you share which CL/F value was measured for `Cc1cccc(-c2[nH]c(CNC(=O)[C@H](N)Cc3ccccc3)nc2-c2ccc3ncnn3c2)n1` ?
109 mL/min/kg

---

Assay: Tmax in male Sprague-Dawley rat at 15 mg/kg, po measured after 8 hrs by UPLC-MS/MS analysis
Format: ADME, organism-based
Details: in vivo
Readout kind: Tmax (min)
Please respond with the number in min and leave the unit unwritten.

Need Tmax, item `Cc1cccc(-c2[nH]c(CNC(=O)[C@H](N)Cc3ccccc3)nc2-c2ccc3ncnn3c2)n1`
6.6

---

Experiment: AUC (0 to t) in male Sprague-Dawley rat at 15 mg/kg, po measured after 8 hrs by UPLC-MS/MS analysis
Type: ADME, organism-based
Settings: in vivo
Readout kind: AUC(0-t) at 8 h

Any idea what its AUC(0-t) at 8 h is? The compound is `Cc1cccc(-c2[nH]c(CNC(=O)[C@H](N)Cc3ccccc3)nc2-c2ccc3ncnn3c2)n1`
1220 ng·h/mL

---

Experiment: MRT (0 to t) in male Sprague-Dawley rat at 4 mg/kg, iv measured after 8 hrs by UPLC-MS/MS analysis
Format: ADME, organism-based
Conditions: in vivo
Readout kind: MRT last at 8 h
Write your answer as a measured quantity: the number, then the unit.

I'd like to know its MRT last at 8 h. The compound in question is `Cc1cccc(-c2[nH]c(CNC(=O)[C@H](N)Cc3ccccc3)nc2-c2ccc3ncnn3c2)n1`
1.01 h

---

Biological target: Mitogen-activated protein kinase 14 (Homo sapiens)
Assay: Inhibition of human recombinant p38alpha expressed in Escherichia coli incubated for 60 mins in presence of ATP by microplate scintillation counter
pIC50: −log10 of the molar value.
Readout kind: pIC50

Sample records with pIC50:
# Compound, Assay system, Observed measurement
data = [
    ("Cc1cccc(-c2nc(NC(=O)[C@@H](N)Cc3ccccc3)sc2-c2ccc3ncnn3c2)n1", "Mitogen-activated protein kinase 14 (Homo sapiens)", "< 5.52"),
    ("Cc1cccc(-c2[nH]c(CNC(=S)[C@H](N)Cc3ccccc3)nc2-c2ccc3ncnn3c2)n1", "Mitogen-activated protein kinase 14 (Homo sapiens)", "< 6.00"),
    ("Cc1cccc(-c2[nH]c(CNC(=O)[C@H](N)CC(C)C)nc2-c2ccc3ncnn3c2)n1", "Mitogen-activated protein kinase 14 (Homo sapiens)", "< 5.52"),
    ("Cc1cccc(-c2[nH]c(CNC(=O)[C@H](C)N)nc2-c2ccc3ncnn3c2)n1", "Mitogen-activated protein kinase 14 (Homo sapiens)", "< 5.52"),
    ("Cc1cccc(-c2nc(NC(=O)[C@H](C)N)sc2-c2ccc3ncnn3c2)n1", "Mitogen-activated protein kinase 14 (Homo sapiens)", "< 6.00"),
]

So what's the measured pIC50 for this one? `Cc1cccc(-c2nc(NC(=S)[C@@H](N)CC(C)C)sc2-c2ccc3ncnn3c2)n1`
< 6.00

I am curious: what pIC50 value has been reported for `Cc1cccc(-c2nc(NC(=O)[C@@H](N)CC(C)C)sc2-c2ccc3ncnn3c2)n1` ?
< 6.00

---

Molecular target: Mitogen-activated protein kinase 14 (Homo sapiens, UniProt Q16539)
Sequence (Q16539 whole entry): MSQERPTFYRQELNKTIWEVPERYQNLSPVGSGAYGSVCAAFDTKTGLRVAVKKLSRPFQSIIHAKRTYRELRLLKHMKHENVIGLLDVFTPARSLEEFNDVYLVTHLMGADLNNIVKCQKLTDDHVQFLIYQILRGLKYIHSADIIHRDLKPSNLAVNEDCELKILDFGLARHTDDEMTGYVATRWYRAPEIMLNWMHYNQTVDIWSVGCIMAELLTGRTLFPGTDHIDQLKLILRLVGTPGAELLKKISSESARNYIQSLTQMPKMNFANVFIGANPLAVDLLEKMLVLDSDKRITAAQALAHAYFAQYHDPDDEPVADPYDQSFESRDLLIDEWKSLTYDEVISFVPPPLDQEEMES
Experiment: Inhibition of human recombinant p38alpha expressed in Escherichia coli incubated for 60 mins in presence of ATP by microplate scintillation counter
Each item that follows carries a reported IC50.

# Compound, Readout kind, Observed measurement
measured = [
    ("Cc1cccc(-c2nc(NC(=O)[C@H]3CCCCN3)sc2-c2ccc3ncnn3c2)n1", "IC50", "> 3 µM"),
    ("Cc1cccc(-c2nc(NC(=S)[C@H](N)CC(C)C)sc2-c2ccc3ncnn3c2)n1", "IC50", "> 1 µM"),
]

Which IC50 value is on record for `Cc1cccc(-c2nc(NC(=O)[C@H](N)Cc3ccccc3)sc2-c2ccc3ncnn3c2)n1` ?
> 3 µM

Any idea what its IC50 is? The compound is `Cc1cccc(-c2nc(NC(=O)[C@H](N)CC(C)C)sc2-c2ccc3ncnn3c2)n1`
> 3 µM

Name the reported IC50 value associated with the compound `Cc1cccc(-c2[nH]c(CNC(=O)[C@@H]3CCCCN3)nc2-c2ccc3ncnn3c2)n1`
> 3 µM

IC50 lookup needed for `Cc1cccc(-c2[nH]c(CNC(=O)[C@H]3CCCCN3)nc2-c2ccc3ncnn3c2)n1` , thanks.
> 1 µM

Consider the compound `Cc1cccc(-c2[nH]c(CNC(=O)[C@@H](N)CC(C)C)nc2-c2ccc3ncnn3c2)n1` and give its measured IC50.
> 3 µM

// returns reported IC50 for input `Cc1cccc(-c2nc(NC(=O)[C@@H]3CCCCN3)sc2-c2ccc3ncnn3c2)n1`
> 3 µM

Would you mind telling me what IC50 value was observed for `Cc1cccc(-c2[nH]c(CNC(=S)[C@@H](N)Cc3ccccc3)nc2-c2ccc3ncnn3c2)n1` ?
> 3 µM

---

Assay: Clearance in male Sprague-Dawley rat at 4 mg/kg, iv measured after 8 hrs by UPLC-MS/MS analysis
Type: ADME, organism-based
Settings: in vivo
Readout kind: clearance (mL/min/kg)
Please state the figure in mL/min/kg; there is no need to write the unit.

Consider the compound shown here: `Cc1cccc(-c2[nH]c(CNC(=O)[C@H](N)Cc3ccccc3)nc2-c2ccc3ncnn3c2)n1` What is its recorded clearance?
5.23

---

Assay: Half-life in male Sprague-Dawley rat at 4 mg/kg, iv measured after 8 hrs by UPLC-MS/MS analysis
Type: ADME, organism-based
Conditions: in vivo
Readout kind: half-life (min)
Give just the number in min; leave the unit off.

Name the recorded half-life for `Cc1cccc(-c2[nH]c(CNC(=O)[C@H](N)Cc3ccccc3)nc2-c2ccc3ncnn3c2)n1` .
134

---

Test: MRT (0 to t) in male Sprague-Dawley rat at 15 mg/kg, po measured after 8 hrs by UPLC-MS/MS analysis
Assay type: ADME, organism-based
Details: in vivo
Readout kind: MRT last at 8 h (h)
Just the number in h, nothing appended.

Look up MRT last at 8 h for this compound: `Cc1cccc(-c2[nH]c(CNC(=O)[C@H](N)Cc3ccccc3)nc2-c2ccc3ncnn3c2)n1`
2.79

---

Test: Cmax in male Sprague-Dawley rat at 15 mg/kg, po measured after 8 hrs by UPLC-MS/MS analysis
Assay type: ADME, organism-based
Details: in vivo
Readout kind: Cmax (ng/mL)
Just the number in ng/mL, nothing appended.

Please give the measured Cmax for this compound: `Cc1cccc(-c2[nH]c(CNC(=O)[C@H](N)Cc3ccccc3)nc2-c2ccc3ncnn3c2)n1`
1390

These entries and their values trace back to ChEMBL document CHEMBL5500337.
